Provenance of the data: ChEMBL document CHEMBL1799999

Let's look at some molecules and their measured pIC50.
# Test system: BT-549
# Protocol text: Antiproliferative activity against human BT549 cells after 48 hrs by alamar blue assay
# Format: functional, cell-based
# Condition notes: BT-549, 48 h
Please express pIC50 as -log10 of the molar concentration.

# annotated cases, reported pIC50 shown
- Smiles representation: "COc1ccc(C(=O)N2c3ccccc3Oc3cc(C#N)ccc32)cc1O"
  Value observed: 7.80
- Smiles representation: "COc1ccc(C(=O)N2c3ccccc3Oc3ccccc32)cc1"
  Value observed: 6.92

# lookup: pIC50 of COc1cc2c(c(OC)c1OC)-c1ccc(OC)c(=O)cc1[C@@H](NC(C)=O)CC2
7.64

# lookup: pIC50 of COc1ccc(C(=O)N2c3ccccc3Oc3cc(C#N)ccc32)cc1
8.10
